measurementTarget: 5-lipoxygenase (Homo sapiens, UniProt P09917)
Construct: endogenous in cells; host or cells: human peripheral blood mononuclear leukocytes (PBMLs)
Sequence (P09917 whole entry): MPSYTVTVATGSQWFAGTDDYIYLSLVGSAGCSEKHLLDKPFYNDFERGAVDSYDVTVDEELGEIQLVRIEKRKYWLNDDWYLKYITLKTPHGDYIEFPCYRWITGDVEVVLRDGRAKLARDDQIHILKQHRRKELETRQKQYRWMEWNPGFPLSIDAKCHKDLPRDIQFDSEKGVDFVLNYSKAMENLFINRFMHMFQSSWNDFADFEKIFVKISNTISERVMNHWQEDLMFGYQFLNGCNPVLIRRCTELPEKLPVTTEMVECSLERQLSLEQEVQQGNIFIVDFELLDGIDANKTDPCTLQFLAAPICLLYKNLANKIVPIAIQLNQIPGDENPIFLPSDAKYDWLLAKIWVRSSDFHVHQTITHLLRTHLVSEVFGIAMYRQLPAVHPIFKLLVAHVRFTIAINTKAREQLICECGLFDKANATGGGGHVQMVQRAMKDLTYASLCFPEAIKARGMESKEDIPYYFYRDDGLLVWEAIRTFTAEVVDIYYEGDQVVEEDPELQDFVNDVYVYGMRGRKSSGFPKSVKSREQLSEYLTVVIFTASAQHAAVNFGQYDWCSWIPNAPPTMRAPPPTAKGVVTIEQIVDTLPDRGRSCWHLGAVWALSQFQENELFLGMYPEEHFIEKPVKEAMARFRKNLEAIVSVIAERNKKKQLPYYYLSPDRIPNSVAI
procedureSummary: 5-lipoxygenase activity (LTB4) in human peripheral blood mononuclear leukocytes (Assay 6)
Type: cell-based
testSettings: 30 μM, human PBMLs, A23187 30 μM, read-out: Inhibition of 5-LO (%)
Where a name gives a salt, the structure may show the parent alone.
assayReadout: inhibition at 30 µM (%)
Only the number, expressed in %, is required.

Noted for COc1cc(CCC(=O)C(C)(C)C(=O)C2(C)CC2)ccc1O [Compound 70] : its inhibition at 30 µM reads 63

Noted for COc1cc(CCC(=O)CC(=O)c2ccc(C#N)cc2)ccc1O [Compound 82] : its inhibition at 30 µM reads 97

Noted for COc1cc(CCC(=O)CC(=O)c2ccccc2C)ccc1O [Compound 84] : its inhibition at 30 µM reads 98

Noted for COc1cc(CCC(=O)CC(=O)c2ccc(F)cc2)ccc1O [Compound 20] : its inhibition at 30 µM reads 98

Noted for COc1cc(CCC(=O)CC(=O)c2ccc(O)c(OC)c2)ccc1O [Compound 15] : its inhibition at 30 µM reads 63

Noted for COc1cc(CCC(=O)C(C)C(=O)C2(C)CC2)ccc1O (stereo not drawn) [Compound 7] : its inhibition at 30 µM reads 63

Noted for COc1cc(CCC(=O)CC(=O)C2(C)CC2)ccc1O [Compound 6] : its inhibition at 30 µM reads 78

Noted for COc1cc(CCC(=O)CC(=O)C(C)(C)c2ccccc2)ccc1O [Compound 31] : its inhibition at 30 µM reads 95

Noted for COc1cc(CCC(=O)C(C)(C)C(=O)C(C)(C)C)ccc1O [Compound 71] : its inhibition at 30 µM reads 48

Noted for COc1cc(CCC(=O)CC(=O)c2ccc(-c3ccccc3)cc2)ccc1O [Compound 18] : its inhibition at 30 µM reads 94

Noted for COc1cc(CCC(=O)CC(=O)c2cccc(Cl)c2)ccc1O [Compound 22] : its inhibition at 30 µM reads 98

Noted for COc1cc(CCC(=O)CC(=O)c2ccc(Cl)cc2C)ccc1O [Compound 76] : its inhibition at 30 µM reads 99

Noted for COc1cc(CCC(=O)CC(=O)c2ccc(C)cc2)ccc1O [Compound 80] : its inhibition at 30 µM reads 97

Noted for COc1cc(CCC(=O)C(Cc2ccccc2)C(=O)c2ccccc2)ccc1O (stereo not drawn) [Compound 13] : its inhibition at 30 µM reads 98

Noted for COc1cc(CCC(=O)C(C)(C)C(=O)c2ccccc2)ccc1O [Compound 32] : its inhibition at 30 µM reads 96

Noted for COc1ccc(C(=O)C(C)C(=O)CCc2ccc(O)c(OC)c2)cc1 (stereo not drawn) [Compound 17] : its inhibition at 30 µM reads 95

Noted for COc1cc(CCC(=O)CC(=O)c2ccccc2)ccc1O [Compound 69] : its inhibition at 30 µM reads 96

Noted for COc1cc(CCC(=O)CC(=O)c2ccccc2-c2ccccc2)ccc1O [Compound 19] : its inhibition at 30 µM reads 99

Noted for COc1cc(CCC(=O)CC(=O)c2ccc3ccccc3c2)c(Cl)cc1O [Compound 86] : its inhibition at 30 µM reads 98

Noted for COc1cc(CCC(=O)CC(=O)c2ccc(Cl)cc2)ccc1O [Compound 21] : its inhibition at 30 µM reads 98

Noted for CCC(C(=O)CCc1ccc(O)c(OC)c1)C(=O)c1ccccc1 (stereo not drawn) [Compound 12] : its inhibition at 30 µM reads 94

Noted for COc1cc(CCC(=O)CC(=O)C(C)(C)C)ccc1O [Compound 2] : its inhibition at 30 µM reads 76

Noted for COc1cc(CCC(=O)C(C)C(=O)c2ccc(O)c(OC)c2)ccc1O (stereo not drawn) [Compound 16] : its inhibition at 30 µM reads 73

Noted for COc1cc(CCC(=O)CC(=O)c2ccccc2)ccc1OCCN [Compound 87, hydrochloride] : its inhibition at 30 µM reads 19

Noted for COc1cc(CCC(=O)C(C)C(=O)c2ccccc2)ccc1O (stereo not drawn) [Compound 11] : its inhibition at 30 µM reads 92

Noted for COc1cc(CCC(=O)C(C)C(=O)C(C)(C)C)ccc1O (stereo not drawn) [Compound 4] : its inhibition at 30 µM reads 73

Noted for COC(=O)c1ccc(C(=O)CC(=O)CCc2ccc(O)c(OC)c2)cc1 [Compound 25] : its inhibition at 30 µM reads 94

Noted for COc1cc(CCC(=O)CC(=O)c2ccc3ccccc3c2)ccc1O [Compound 26] : its inhibition at 30 µM reads 98

Noted for COc1cc(CCC(=O)CC(=O)c2cccc3ccccc23)ccc1O [Compound 27] : its inhibition at 30 µM reads 98

Noted for COc1cc(CCC(=O)C(C)C(=O)c2ccc(C)cc2)ccc1O (stereo not drawn) [Compound 14] : its inhibition at 30 µM reads 96

Noted for COc1cc(CCC(=O)CC(=O)C(c2ccccc2)c2ccccc2)ccc1O [Compound 30] : its inhibition at 30 µM reads 99

Noted for COc1cc(CCC(=O)CC(=O)Cc2ccccc2)ccc1O [Compound 28] : its inhibition at 30 µM reads 98

Noted for COc1cc(CCC(=O)CC(=O)c2ccc(C(C)(C)C)cc2)ccc1O [Compound 83] : its inhibition at 30 µM reads 99

Noted for COc1cc(CCC(=O)CC(=O)c2ccccc2Cl)ccc1O [Compound 74] : its inhibition at 30 µM reads 98

Noted for COc1cc(CCC(=O)C(C)(C)C(=O)c2ccc(C)cc2)ccc1O [Compound 81] : its inhibition at 30 µM reads 97

Noted for COc1cc(CCC(=O)CC(=O)Cc2cccc3ccccc23)ccc1O [Compound 29] : its inhibition at 30 µM reads 98
